Here, each record is paired with measured internalization Top (MFI), CHO-K1/H_IL-13RA2 cells data.
- Target: T1, human interleukin 13 receptor subunit alpha 2 (IL-13RA2) (human, UniProt Q14627 27-380)
- T1 sequence (looked up): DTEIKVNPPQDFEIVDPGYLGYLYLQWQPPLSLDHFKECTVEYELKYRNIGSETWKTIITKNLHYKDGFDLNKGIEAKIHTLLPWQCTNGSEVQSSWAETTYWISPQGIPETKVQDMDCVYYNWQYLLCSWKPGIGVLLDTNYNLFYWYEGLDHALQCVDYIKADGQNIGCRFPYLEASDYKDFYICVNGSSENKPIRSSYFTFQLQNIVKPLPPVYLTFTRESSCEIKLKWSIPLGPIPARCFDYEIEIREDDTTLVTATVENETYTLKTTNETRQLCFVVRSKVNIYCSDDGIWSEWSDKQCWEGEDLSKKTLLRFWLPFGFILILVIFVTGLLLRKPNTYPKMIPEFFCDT
- Test Summary: cell-based or functional assay
Your answer is read as MFI, so omit the unit and give the number.

A selection of reference data follows.
>  <Binder>
xi24G6D5 hIgG1 (antibody, V domains shown) VH: QVQLQQSGPELVKPGTSVKMSCKASGYTFTSNYIHWVKQRPGQGLEWIGWIYPGDGSIKYNEKFKGKTTLTADKSSSTVYMLLSSLTSEDSAIYFCAVLRRLDYWGQGTTLTVSS VL: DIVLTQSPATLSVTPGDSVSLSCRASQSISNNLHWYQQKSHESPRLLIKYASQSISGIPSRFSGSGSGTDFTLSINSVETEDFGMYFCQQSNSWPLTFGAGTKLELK

>  <Measured Number>
12700

$$$$
>  <Binder>
xi61H8C1 hIgG1 (antibody, V domains shown) VH: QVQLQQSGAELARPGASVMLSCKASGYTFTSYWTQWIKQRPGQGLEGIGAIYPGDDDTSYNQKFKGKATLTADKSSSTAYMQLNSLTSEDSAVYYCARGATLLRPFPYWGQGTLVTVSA VL: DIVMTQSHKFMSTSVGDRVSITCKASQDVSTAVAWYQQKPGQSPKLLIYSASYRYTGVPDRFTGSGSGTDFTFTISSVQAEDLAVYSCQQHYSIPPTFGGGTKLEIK

>  <Measured Number>
16900

$$$$
>  <Binder>
xi54A4F7 hIgG1 (antibody, V domains shown) VH: EVKLVESGGGLVKPGGSLKLSCAASGFTFSSYGMSWVRQTPEKRLEWVATISGGGSYTYYPDSVKGRFTISRDNAKNNLYLQMSSLRSEDTALYYCARRDLRSAMDHWGQGTSVTVSS VL: DIVMTQSQKFMSTSVGDRVSVTCRASQNVDINVAWYQQKPGQSPKSLIYSASYRYSGVPDRFTGSGSGTDFTLTISNVQSEDLAEYFCQQYNSYPLTFGGGTKLEIR

>  <Measured Number>
18000

$$$$

Read the next record carefully.
Request: For xi62A8D8 hIgG1 (antibody, V domains shown) VH: EVKLVESGGGLVKPGGSLKLSCAASGFTFSSYGMSWVRQTPEKRLEWVATISGGGSYTYYPDSVKGRFTISRDNAKNNLYLQMSSLRSEDTALYYCARRDLRSAMDYWGQGTSVTVSS VL: DIVMTQSQKFMSTSVGDRVSVTCKASQNVDINVAWYQQKPGQSPKALIYSASYRYSGVPDRFTGSGSGTDFTLTISNVQSEDLAEFFCQQYNNYPLTFGGGTKLEIK , write its internalization Top (MFI), CHO-K1/H_IL-13RA2 cells.
Response: 17200

Source of measurements: patent US20250163164A1
